- System: Male Sprague Dawley rats
- TEST_DESCRIPTION: Oral glucose tolerance test (OGTT) 1
- Format: in vivo
- CONDITION_CONTEXT: Rattus norvegicus, 2 h; SD rats; 10 mg/kg oral; glucose 4 g/kg 30 minutes after; read-out: % AUC (reduction (%) of blood glucose AUC)
- Experimental: Male Sprague Dawley rats aged 8-10 weeks old were acclimated for at least 7 days, and then only healthy animals were used for the oral glucose tolerance test (OGTT test). After fasting for 16-18 hours, five rats per group were randomly grouped and orally administered with the compounds prepared in Examples 2, 3, 4, 6, 9, 12, 14, 16, 25, 29, 36, 37, 41, 43, and 44 at a dose of 10 mg/kg each. […] Then, the blood glucose was measured by using Accu-chek active strip (Roche diagnostic Co.).
Catalogue of molecules with associated inhibition in vivo at 10 mg/kg
MEASUREMENT_TYPE: inhibition in vivo at 10 mg/kg (%)

{"columns": ["MOLECULE", "MEASUREMENT_TYPE", "TEST_RESULT"],
 "data": [
  ["CC#C[C@@H](CC(=O)O)c1ccc(OCc2cccc(C3=CCC4(CC3)OCCO4)c2)cc1", "inhibition in vivo at 10 mg/kg", 24.7],
  ["CC#CC(CC(=O)O)c1ccc(OCc2ccc(CN3CCc4cc(OC)ccc4C3)cc2)cc1 (centres unmarked)", "inhibition in vivo at 10 mg/kg", 21.1],
  ["CC#C[C@@H](CC(=O)O)c1ccc(OCc2ccc(CN3CCN(c4ccc(OCCCS(C)(=O)=O)cc4)CC3)cc2)cc1", "inhibition in vivo at 10 mg/kg", 22.6],
  ["CC#CC(CC(=O)O)c1ccc(OCc2ccc(CN3CC=C(c4ccccc4)CC3)cc2)cc1 (centres unmarked)", "inhibition in vivo at 10 mg/kg", 27.7],
  ["CC#CC(CC(=O)O)c1ccc(OCc2ccc(CN3CCc4ccccc4C3)cc2)cc1 (centres unmarked)", "inhibition in vivo at 10 mg/kg", 31],
  ["CC#CC(CC(=O)O)c1ccc(OCc2cccc(C3=CCC4(CC3)OCCO4)c2)cc1 (centres unmarked)", "inhibition in vivo at 10 mg/kg", 17.2],
  ["CC#C[C@@H](CC(=O)O)c1ccc(OCc2ccc(CN3CCN(c4ncc(CCC)cn4)CC3)cc2)cc1", "inhibition in vivo at 10 mg/kg", 22.8],
  ["CC#C[C@@H](CC(=O)O)c1ccc(OCc2ccc(CN3CCc4cc(OC)ccc4C3)cc2)cc1", "inhibition in vivo at 10 mg/kg", 24.6]
]}
